Tested on: UO-31 renal
Protocol notes: NCI tumour cell line growth inhibition, 48 h
Kindly state TGI for each of the entries shown.

# annotated cases, reported TGI shown
- C[N+](C)(C)CCc1ccccc1: > 100 µM
- c1cnn2ncc(-c3ccnc(NCCCN4CCOCC4)n3)c2c1: 21 µM
- CN[C@@H](C)C(=O)N[C@H](C(=O)N1CCC[C@H]1C(=O)Nc1sc(-c2ncco2)nc1-c1ccccc1)C1CCCCC1: > 68.9 µM

Could I get TGI for every one of these entries?
1. N#CC(=C1C=CC(=NO)C=C1)c1ccc(Cl)cc1
2. COC(=O)C1(C)CCc2c(OC)ccc(OC)c2C1=O (stereo not drawn)
3. O=C1C=CC2(C=C1)O[C@H](Cc1ccccc1)[C@@H](Cc1ccccc1)O2
4. NC(N)=NCC[C@H](NC(=O)OCCCCCn1ccc(=O)[nH]c1=O)C(=O)O
5. O=C(NC1CCCCC1NC(c1ccccc1)(c1ccccc1)c1ccccc1)C(=O)NC1CCCCC1NC(c1ccccc1)(c1ccccc1)c1ccccc1 (stereo not drawn)
6. CCOC(=O)/C(C=Nc1c(C)n(C)n(-c2ccccc2)c1=O)=C(/C)O
7. N#Cc1sc2c(c1OC(=O)c1ccccc1)c(=O)n(-c1ccccc1)c(=S)n2-c1ccccc1
8. NCCSS(=O)(=O)CCN

Response:
["31.7 µM", "> 100 µM", "0.69 µM", "> 100 µM", "> 100 µM", "> 100 µM", "35.6 µM", "> 100 µM"]

----------
System: OVCAR-5 ovarian
Protocol notes: NCI tumour cell line growth inhibition, 48 h
Kindly state TGI for each of the entries shown.

# annotated cases, reported TGI shown
• CC(=O)C(CN(CC(C)C)CC(C)C)C(c1ccccc1)c1c(O)c2ccccc2oc1=O (centres undefined) = > 100 µM
• O=c1[nH]cc(-c2c[nH]c3ccccc23)nc1-c1c[nH]c2ccccc12 = 27.6 µM
• O=C(O)c1cc2c(ncc3c(=O)n(-c4ccccc4)[nH]c32)s1 = > 100 µM
• COC(=O)C1(C)CCc2c(OC)ccc(OC)c2C1=O (centres undefined) = > 100 µM

Could I get TGI for every one of these entries?
1. Nc1n[n+](CC(=O)c2ccccc2)c2sc(-c3ccccc3)nn12
2. N#C[C@H](OC1OC(COC2OC(CO)C(O)C(O)C2O)C(O)C(O)C1O)c1ccccc1 (some centres undefined)
3. O=c1ssc(=Nc2ccccc2)n1-c1ccccc1
4. COC(=O)c1onc(-c2c(OC)cc(OC)cc2OC)c1C(=O)OC
5. O=C1C=CC2(C=C1)O[C@H](Cc1ccccc1)[C@@H](Cc1ccccc1)O2
6. O=C(OCc1ccc2ccccc2n1)c1cn(C2CC2)c2cc(N3CCN(Cc4ccc5ccccc5n4)CC3)c(F)cc2c1=O
7. CC(=O)Nc1ccc(C(O)/C(=N/N)c2nc3ccc(Cl)cc3[nH]c2=O)cc1 (centres undefined)
8. CCC(C=O)P1(=O)OC(C)(C)CN1C(C)(C)C (centres undefined)

Response:
1. > 100 µM
2. > 250 µM
3. > 100 µM
4. > 100 µM
5. 1.34 µM
6. > 100 µM
7. > 100 µM
8. > 100 µM

----------
System: NCI-H522 lung
Protocol notes: NCI tumour cell line growth inhibition, 48 h; in the data active means GI50 below about 0.43 µM; inactive means the rest
Lab note: assign the record to one of y = active, n = inactive

Solved entries:
* OCc1ccc(N2CCCC2c2ccccc2)cc1Cl (stereo not given) | n
* COc1ccc2c(c1)N(CCO)C1=C(C(=O)OC1)C2c1cccc(F)c1 (stereo not given) | y
* O=C(O)CN1CCN(CC(=O)O)CC(=O)[O][Hg][O]C(=O)C1 | n
* O=c1[nH]c(=O)n(C2CC(O)C(COP(=O)(OCc3ccc([N+](=O)[O-])o3)N(CCCCCl)CC(O)CO)O2)cc1F (stereo not given) | n

Now turn to the next compound.
Query: Recorded call for N#CC1(C(N)=O)C(c2ccc(Cl)cc2)CC(=O)CC1c1ccc(Cl)cc1 (stereo not given) ?
Response: n

----------
Test system: SF-268 CNS
Protocol notes: NCI tumour cell line growth inhibition, 48 h
Kindly state TGI for each of the entries shown.

# annotated cases, reported TGI shown
* O=C(O)C12C3CCC(CC3)C1(C(=O)O)C1CCC2C1 (stereo not given) | > 100 µM
* CCC1(c2ccccc2)C(=O)N=C(c2ccccc2)N1CCc1ccccc1 (stereo not given) | > 100 µM
* COC(=O)C1(C)CCc2c(OC)ccc(OC)c2C1=O (stereo not given) | > 100 µM
* CN[C@@H](C)C(=O)N[C@H](C(=O)N1CCC[C@H]1C(=O)Nc1sc(-c2ncco2)nc1-c1ccccc1)C1CCCCC1 | > 100 µM
* COc1cc2c3c(n(C)c(=O)c2cc1OC)-c1cc2c(cc1/C3=C\CCCCN1C(=O)c3ccccc3C1=O)OCO2 | > 100 µM

Could I get TGI for every one of these entries?
1. OCc1ccc(N2CCCC2c2ccccc2)cc1Cl (stereo not given)
2. CC1(/C=C/CCSc2ccccc2)CC(=O)C2CC1C2(C)C (stereo not given)

Response:
1. 49.5 µM
2. > 100 µM

----------
Kindly state TGI for each of the entries shown.
Test system: KM12 colon
Protocol notes: NCI tumour cell line growth inhibition, 48 h
Answers are plain numbers, in µM.

* COc1ccc(C2SCC(=O)N2c2ccc(-c3ccc(-n4c(-c5ccccc5)nc5ccccc5c4=O)cc3)cc2)cc1OC (stereo not drawn) | 28.3

Could I get TGI for every one of these entries?
1. N#CC(=C1C=CC(=NO)C=C1)c1ccc(Cl)cc1
2. CCCCCCCOc1ccc(/C=C\c2cc[n+](CCCCCCCC[n+]3ccc(/C=C\c4ccc(OCCCCCCC)cc4)cc3)cc2)cc1
3. CC(=O)c1ccc2c(c1)CC1(C2)Cc2cc3c(cc2C1=O)CCC3 (stereo not drawn)

Response:
[3.98, 28.2, 32.4]

----------
System: MOLT-4 leukemia
Protocol notes: NCI tumour cell line growth inhibition, 48 h
Readout: TGI

- O=C1OCC2=C1C(c1ccc(Cl)c(Cl)c1)c1cc3c(cc1N2CCO)OCCO3 (stereo not drawn): > 42.3 µM
- O=C1OC(=O)C(=C\c2ccc3c(c2)OCO3)/C1=C/c1ccc2c(c1)OCO2: > 100 µM
- CN(N=O)C(=O)ON1C(=O)CCC1=O: > 100 µM
- O=C(CCCN1CCC2(CC1)CC(c1ccccc1)OC2=O)c1ccc(F)cc1 (stereo not drawn): 62.1 µM
- O=c1ssc(=Nc2ccccc2)n1-c1ccccc1: > 100 µM

Could I get TGI for every one of these entries?
1. O=C1CCCN1C(=O)CS(=O)(=O)c1ccccc1
2. O=C1OC2(CC1C1(O)C3CC4CC(C3)CC1C4)C1CC3CC(C1)CC2C3 (stereo not drawn)
3. C[N+](C)(C)CCc1ccccc1

Response:
["> 100 µM", "> 100 µM", "> 100 µM"]

Could I get TGI for every one of these entries?
1. N#Cc1c(N2CCOCC2)nc(=S)[nH]c1-c1ccco1
2. O=C(Nc1nc2ccc([N+](=O)[O-])cc2s1)C(=O)C(C(=O)c1ccccc1F)C1OC(=O)c2ccccc21 (stereo not drawn)
3. CC1=NN(C(=O)c2ccncc2)C(=O)C1
4. CO/C(=N\N=C\c1ccc(OC)c(OC)c1)c1ccncc1
5. O=[N+]([O-])c1cccc2nnccc12
6. COc1cc(C2SCC(=O)N2c2cccc(Cl)c2)cc(OC)c1OC (stereo not drawn)

Response:
51.1 µM
> 100 µM
> 100 µM
> 10 µM
> 100 µM
> 100 µM

Could I get TGI for every one of these entries?
1. Oc1ccc(-c2cc(-c3cc(-c4ccc(O)cc4)no3)on2)cc1
2. Cc1c(/C=N/N=C/c2[nH]c(C(=O)OC(C)(C)C)c(C)c2C)[nH]c(C(=O)OC(C)(C)C)c1C
3. CC1CC(C)C(C#N)N(C)c2ccccc21 (stereo not drawn)
4. CC(=O)/C=C/c1cn(C(=O)OC(C)(C)C)c2ccc(Br)cc12
5. O=S(=O)(c1ccc(Cl)cc1)C(Cl)(Cl)Cl
6. COc1ccc(-c2[nH]c3ccccc3c2-c2ccc(OC)cc2)cc1
7. CC(C)NCCCn1c(Sc2cc3c(cc2I)OCO3)nc2c(N)ncnc21

Response:
1: 9.52 µM; 2: > 100 µM; 3: > 100 µM; 4: > 100 µM; 5: > 44.3 µM; 6: 9.62 µM; 7: > 91.9 µM

Could I get TGI for every one of these entries?
1. CC1(C)C=Cc2c(cc(O)c3c(=O)c4cc(Cl)ccc4[nH]c23)O1
2. C=CC1(NC(=O)c2ccccc2)CCC(C(C)(C)C)CC1 (stereo not drawn)
3. OCC1OC(n2cnc3c(N/N=C\c4ccccn4)ncnc32)C(O)C1O (stereo not drawn)
4. O=C(O)c1ccc(C(=O)c2ccccc2)c(C(=O)O)c1
5. COc1cc2c(cc1C1COc3cc4occc4cc3C1=O)OCO2 (stereo not drawn)

Response:
8.22 µM
30.3 µM
> 100 µM
> 100 µM
> 100 µM

Could I get TGI for every one of these entries?
1. N#Cc1sc2c(c1OC(=O)c1ccccc1)c(=O)n(-c1ccccc1)c(=S)n2-c1ccccc1
2. CCOC(=O)C1=C(C)N(c2ccc(Cl)cc2)[C@]2(C#N)C(O)=C(Cl)C(Cl)=C(O)[C@]12C#N
3. C[n+]1ccc(/C2=C3\C=CC(=N3)/C(c3cc[n+](C)cc3)=c3/cc/c([nH]3)=C(\c3cc[n+](C)cc3)C3=N/C(=C(/c4cc[n+](C)cc4)C4C=CC2N4)C=C3)cc1
4. Cc1cc(S(=O)(=O)/N=C(/N)Nc2ccccc2O)c(SCc2ccccc2)cc1Cl
5. O=S1(=O)OCCOS(=O)(=O)C1(F)Br

Response:
1: 51.8 µM; 2: > 100 µM; 3: > 100 µM; 4: 42.3 µM; 5: > 100 µM

Could I get TGI for every one of these entries?
1. CCN(CC)CC1c2ccccc2C(CNc2ccccc2)N1C (stereo not drawn)
2. Cc1ccccc1-n1c(=O)c2ncn(C3CCCO3)c2n(-c2ccccc2C)c1=S (stereo not drawn)
3. CC(=O)Nc1ccc(C(O)/C(=N/N)c2nc3ccc(Cl)cc3[nH]c2=O)cc1 (stereo not drawn)
4. COc1ccc2cc1Oc1ccc(cc1)C[C@H]1c3c(cc4c(c3Oc3cc5c(cc3OC)CCN(C)[C@@H]5C2)OCO4)CCN1C
5. CC1(/C=C/CCSc2ccccc2)CC(=O)C2CC1C2(C)C (stereo not drawn)
6. O=[N+]([O-])c1nccn1CCCNc1ccnc2cc(Cl)ccc12
7. CCCCCCCCCCCCCCCCCC[n+]1ccc2c(C)c3c(c(C)c2c1)c1cc(O)ccc1n3CC

Response:
1: > 100 µM; 2: > 100 µM; 3: > 100 µM; 4: 12.9 µM; 5: > 40.5 µM; 6: > 100 µM; 7: 14.9 µM

Could I get TGI for every one of these entries?
1. CCOC(=O)/C(C=Nc1c(C)n(C)n(-c2ccccc2)c1=O)=C(/C)O
2. CC(C)(C)OC(=O)NC(Cc1ccccc1)OCc1ccccc1 (stereo not drawn)
3. COc1cccc(NC(=O)CSc2nnc(-c3ccc(NC(C)=O)cc3)o2)c1
4. Cc1cc(C)c(-n2[nH]c(=O)n(C)c2=O)c(C)c1
5. CCCNC(=O)C(C)C1CCC2(C)C=CC(=O)C(C)=C2C1O (stereo not drawn)

Response:
1. > 100 µM
2. 77.6 µM
3. > 100 µM
4. > 100 µM
5. > 100 µM
